Test system: IL-6 release from RAW264.7 cells
METHOD: IL-6 release from LPS stimulated RAW264.7 cells
Assay type: cell-based, mouse
EXPERIMENTAL CONTEXT: RAW 264.7 cells; mesylate
Protocol: Specifically, A and B show the effects of the compound of Example 1 on soluble PGE2 and Il-6 secretion from RAW264.7 cells stimulated by 1 μg/mL of LPS. The cells were treated with the indicated concentrations of the compound of Example 1 for 2 hours, and then LPS was added and incubation continued for 4 hours. […]
MEASURE: pEC50
Worth noting: pEC50 values are minus log10 of concentrations stated in mol/L.

## Task Give the measured pEC50 of CS(=O)(=O)O.O=C(NC1=CC(=O)C2OC2C1O)c1ncccc1O (racemic) [Example 12, mesylate] .
## Result 5.60
